Where do these numbers come from? They come from PubChem BioAssay (NCI).

- System: SW-620 colon
- METHOD_SUMMARY: NCI tumour cell line growth inhibition, 48 h
RECORDED_METRIC: TGI

Measured TGI, COC(=O)C1=C(C(=O)OC)C2(c3ccccc3)c3ccccc3C(=O)C1N2C1CCCCC1 (stereo not given) : > 100 µM

Measured TGI, `CCOC(=O)CCN1C(=O)c2ccc(NC(=O)C(=O)O)cc2S1(=O)=O` : > 100 µM

Measured TGI, `COc1ccc(-c2cc(-c3ccccc3)c3c(n2)-c2ccccc2NC(=O)C3)cc1` : > 100 µM

Measured TGI, `N/C(=N\Nc1cccc(Cl)c1)c1cccnc1` : > 100 µM

Now, please, on to the next molecule.
Measured TGI, `CC(=O)O[C@H]1CC[C@@]2(C)C(=CC[C@H]3[C@@H]4C[C@H](N5CCN(C)CC5)[C@H](OC(C)=O)[C@@]4(C)CC[C@@H]32)C1` : 29.8 µM
